Attribute: pKd
# measured.on: T1, LA Peptide (fluorescence polarization)
# T1 peptide: LAKLDEESILKQK(FITC)
# assay.remarks: fluorescence polarization, FITC peptide titrated with protein
pKd: −log10 of the molar value. No end group written: not given here. *: point of attachment. FITC = O=C1OC2(c3ccc(O)cc3Oc3cc(O)ccc32)c2ccc(NC(=S)*)cc21

>  <binder>
PS852 (designed binder, Variant of PS557) MPTAASATESAIEDTPAPARPEVDGRTKPKHQPRYHVVLWDDDDHTYQYVVVMLRSLFGHPPERGYRLAKEMDTQGRVIVLTTTREHAELKRDQIHAFGYDRLLARSKGSMKASIEAEE

>  <pKd>
7.72

$$$$
>  <binder>
PS557 (other, Natural ClpS parent protein; also called WT; wild-type protein) MPTAASATESAIEDTPAPARPEVDGRTKPKRQPRYHVVLWNDDDHTYQYVVVMLQSLFGHPPERGYRLAKEVDTQGRVIVLTTTREHAELKRDQIHAFGYDRLLARSKGSMKASIEAEE

>  <pKd>
7.28

$$$$
>  <binder>
PS857 (designed binder, Variant of PS557; also called N41D, V72M, L68M) MPTAASATESAIEDTPAPARPEVDGRTKPKRQPRYHVVLWDDDDHTYQYVVVMLQSLFGHPPERGYRMAKEMDTQGRVIVLTTTREHAELKRDQIHAFGYDRLLARSKGSMKASIEAEE

>  <pKd>
8.15

$$$$
>  <binder>
PS824 (designed binder, Variant of PS557) MPTAASATESAFEDTPAPARPEVDGRTKPKRQPRYHVVLWDDDDHTYQYVVVMLRSLFGHPPERGYRLAKEMDTQGRVIVLTTTREHAELKRDQIHAFGYDRLLARSKGSMKASIEAEE

>  <pKd>
8.00

$$$$
